ASSAY TARGET: D(3) dopamine receptor (Homo sapiens, UniProt P35462)
Sequence (P35462 whole entry): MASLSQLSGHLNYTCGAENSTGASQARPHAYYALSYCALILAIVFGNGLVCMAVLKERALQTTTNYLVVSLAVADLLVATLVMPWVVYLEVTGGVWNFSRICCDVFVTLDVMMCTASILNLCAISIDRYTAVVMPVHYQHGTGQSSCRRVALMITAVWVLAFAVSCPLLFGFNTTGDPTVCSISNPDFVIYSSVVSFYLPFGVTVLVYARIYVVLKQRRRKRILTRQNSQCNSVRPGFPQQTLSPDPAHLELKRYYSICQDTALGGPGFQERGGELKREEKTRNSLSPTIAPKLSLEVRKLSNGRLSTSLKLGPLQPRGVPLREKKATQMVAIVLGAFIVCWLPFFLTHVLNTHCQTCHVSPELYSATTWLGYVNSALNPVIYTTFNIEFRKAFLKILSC
MEASUREMENT DESCRIPTION: Displacement of [3H]N-methylspiperone from human dopamine D3 receptor by PDSP assay
APPLIED CONDITIONS: read-out: Ki

[
  {
    "COMPOUND": "O=C1c2ccccc2CC1CCN1CCN(c2ccc(Cl)cc2)CC1 (stereo unspecified)",
    "Ki / µM": 4.53
  },
  {
    "COMPOUND": "[O-][S+](CCCN1CCN(c2ccc(Cl)cc2)CC1)c1ccc(F)cc1 (stereo unspecified)",
    "Ki / µM": 1.34
  },
  {
    "COMPOUND": "Clc1ccc(N2CCN(CCc3nc4ccccc4o3)CC2)cc1",
    "Ki / µM": 0.85
  },
  {
    "COMPOUND": "Clc1ccc(N2CCN(CCCc3cc4ccccc4o3)CC2)cc1",
    "Ki / µM": 2.29
  },
  {
    "COMPOUND": "Fc1ccc2c(c1)CC(CCN1CCN(c3ccc(Cl)cc3)CC1)C2 (stereo unspecified)",
    "Ki / µM": 2.77
  },
  {
    "COMPOUND": "Clc1ccc(N2CCN(CCCCCc3nc4ccccc4o3)CC2)cc1",
    "Ki / µM": 0.119
  }
]

====

ASSAY TARGET: D(3) dopamine receptor (Homo sapiens)
MEASUREMENT DESCRIPTION: Displacement of [3H]N-methylspiperone from human dopamine D3 receptor by PDSP assay
APPLIED CONDITIONS: read-out: Ki
pKi: −log10 of the molar value.

[
  {
    "COMPOUND": "O=C1c2ccc(F)cc2CC1CCN1CCN(c2ccc(Cl)cc2)CC1 (stereo not drawn)",
    "pKi": 5.61
  },
  {
    "COMPOUND": "Clc1ccc(N2CCN(CCCCc3nc4ccccc4o3)CC2)cc1",
    "pKi": 7.48
  },
  {
    "COMPOUND": "Clc1ccc(N2CCN(CCCc3nc4ccccc4s3)CC2)cc1",
    "pKi": 6.67
  }
]

====

ASSAY TARGET: 5-hydroxytryptamine receptor 2A (Rattus norvegicus)
Sequence (P14842 whole entry): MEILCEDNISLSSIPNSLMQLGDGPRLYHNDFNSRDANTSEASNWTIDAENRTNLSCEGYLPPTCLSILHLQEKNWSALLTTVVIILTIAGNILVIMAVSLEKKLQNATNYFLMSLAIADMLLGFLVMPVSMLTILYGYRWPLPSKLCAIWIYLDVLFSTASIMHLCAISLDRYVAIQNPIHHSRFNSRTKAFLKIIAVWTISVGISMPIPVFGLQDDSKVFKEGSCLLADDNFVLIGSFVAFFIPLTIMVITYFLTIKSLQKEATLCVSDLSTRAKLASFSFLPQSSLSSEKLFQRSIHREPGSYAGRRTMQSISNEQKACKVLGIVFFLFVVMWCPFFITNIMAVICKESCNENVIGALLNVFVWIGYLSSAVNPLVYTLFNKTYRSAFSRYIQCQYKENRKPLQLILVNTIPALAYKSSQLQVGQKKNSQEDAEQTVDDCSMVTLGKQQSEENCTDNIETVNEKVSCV
pKi: −log10 of the molar value.
VALUE KIND: pKi

[
  {
    "STRUCTURE STRING": "c1cnc(N2CCN(CCCc3nc4ccccc4s3)CC2)nc1",
    "ASSAY TARGET": "5-hydroxytryptamine receptor 2A (Rattus norvegicus)",
    "MEASUREMENT": 6.55
  }
]

====

MEASUREMENT DESCRIPTION: Selectivity ratio of Ki for human dopamine D2 receptor to Ki for rat dopamine D4 receptor
Friendly reminder: Ratio Ki below 30 is Y, at or above is N.

[
  {
    "COMPOUND": "Clc1ccc(N2CCN(CCCCCc3nc4ccccc4o3)CC2)cc1",
    "LABEL CLASS": "Y"
  },
  {
    "COMPOUND": "Clc1ccc(N2CCN(CCCc3cc4ccccc4o3)CC2)cc1",
    "LABEL CLASS": "Y"
  },
  {
    "COMPOUND": "Clc1ccc(N2CCN(CCCc3nc4ccccc4o3)CC2)cc1",
    "LABEL CLASS": "Y"
  },
  {
    "COMPOUND": "Fc1ccc(CCCCN2CCN(c3ccc(Cl)cc3)CC2)cc1",
    "LABEL CLASS": "N"
  },
  {
    "COMPOUND": "FC(F)(F)c1ccc(OCCCN2CCN(c3ccccn3)CC2)cc1",
    "LABEL CLASS": "N"
  },
  {
    "COMPOUND": "Fc1ccc(SCCCN2CCN(c3ncccn3)CC2)cc1",
    "LABEL CLASS": "Y"
  },
  {
    "COMPOUND": "Clc1ccc(N2CCN(CCCc3nc4ccccc4s3)CC2)cc1",
    "LABEL CLASS": "N"
  },
  {
    "COMPOUND": "Clc1ccc(N2CCN(CCCOc3ccccc3)CC2)cc1",
    "LABEL CLASS": "N"
  },
  {
    "COMPOUND": "O=C1c2ccc(F)cc2CC1CCN1CCN(c2ccc(Cl)cc2)CC1 (configuration not stated)",
    "LABEL CLASS": "N"
  },
  {
    "COMPOUND": "Cc1ccc(N2CCN(CCCOc3ccc(F)cc3)CC2)nc1",
    "LABEL CLASS": "N"
  },
  {
    "COMPOUND": "Fc1ccc(SCCCN2CCN(c3ccc(Cl)cc3)CC2)cc1",
    "LABEL CLASS": "Y"
  },
  {
    "COMPOUND": "Fc1ccc(OCCCN2CCN(c3ncccn3)CC2)cc1",
    "LABEL CLASS": "N"
  }
]
